molecular target: Serine/threonine-protein kinase 33 (Homo sapiens); assay: STK33 kinase inhibitors, dose response, biochemical, luminescence, cell-free, retest (AID 2821)
measured quantity: EC50 (µM)

Examples from the recorded data:
compound=O=C(O)c1ccc(N=Cc2c(O)ccc3oc4c(c23)CCCC4)cc1 tested_on="Serine/threonine-protein kinase 33 (Homo sapiens)" measured_quantity=EC50 recorded_measurement=6.2
compound=C[C@H]1CCCC(=O)CCCC=Cc2cc(O)cc(O)c2C(=O)O1 tested_on="Serine/threonine-protein kinase 33 (Homo sapiens)" measured_quantity=EC50 recorded_measurement=44.6
compound="COc1cc(C(=O)NC2CCN(C)CC2)ccc1Nc1ncc2c(n1)N(C1CCC(O)CC1)CCC(=O)N2C (centres undefined)" tested_on="Serine/threonine-protein kinase 33 (Homo sapiens)" measured_quantity=EC50 recorded_measurement=8.38
compound=CN(C)S(=O)(=O)c1cccc(NC(=S)Nc2ccc3cn[nH]c3c2)c1 tested_on="Serine/threonine-protein kinase 33 (Homo sapiens)" measured_quantity=EC50 recorded_measurement=38.7

A: CCN(CC)c1ccc(/C=C2\C(=O)c3ccc(C(=O)O)cc3C2=O)cc1
B: O=C1NC(=O)/C(=C/c2ccc(O)cc2)S1
Lab note: check whether A or B has the lower measured EC50. Please reply using the label of the selected record.
A

* * *

target: Serine/threonine-protein kinase 33 (Homo sapiens, UniProt Q9BYT3); experiment: STK33 kinase inhibitors, dose response, biochemical, luminescence, cell-free, retest (AID 2821)
Sequence (Q9BYT3 whole entry): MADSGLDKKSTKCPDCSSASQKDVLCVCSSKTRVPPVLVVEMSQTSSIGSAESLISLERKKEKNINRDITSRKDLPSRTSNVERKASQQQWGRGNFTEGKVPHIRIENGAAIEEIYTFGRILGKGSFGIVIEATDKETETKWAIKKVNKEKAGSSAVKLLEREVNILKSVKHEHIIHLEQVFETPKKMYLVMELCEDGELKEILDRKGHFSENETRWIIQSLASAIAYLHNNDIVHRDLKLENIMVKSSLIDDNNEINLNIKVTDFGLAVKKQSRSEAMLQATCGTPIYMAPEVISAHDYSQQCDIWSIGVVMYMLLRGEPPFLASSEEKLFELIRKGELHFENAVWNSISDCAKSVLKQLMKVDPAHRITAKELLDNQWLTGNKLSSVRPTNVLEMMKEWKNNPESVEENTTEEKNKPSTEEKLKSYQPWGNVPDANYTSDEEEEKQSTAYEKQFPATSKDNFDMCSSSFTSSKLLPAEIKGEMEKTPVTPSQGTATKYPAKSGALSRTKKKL
pEC50: −log10 of the molar value.
measured quantity: pEC50

compound=O=C(c1ccc2c3n(nc2c1)-c1ccccc1CO3)N1CCOCC1 measured_quantity=pEC50 recorded_measurement=4.74
compound=COc1ccc(C(=O)ON=C(N)c2ccccn2)cc1 measured_quantity=pEC50 recorded_measurement=4.39
compound="CCCn1c2ccc(C(C)N=O)cc2c2cc(C(C)N=O)ccc21 (configuration not stated)" measured_quantity=pEC50 recorded_measurement=5.61

I: O=C(Nc1ccccc1-c1ccccc1)c1ccc(Br)o1
II: COc1ccc(-c2oc3ncnc(NCCCN(C)C)c3c2-c2ccc(OC)cc2)cc1
III: O=C1N=C(NCc2ccccc2)SC1=Cc1ccc(O)cc1
IV: O=C(Nc1ccccc1C(=O)O)c1cccc(C(=O)Nc2ccccc2C(=O)O)c1
Rank items: key pEC50, increasing. Provide the labels, sequenced as the question asks.
IV, II, I, III

* * *

target: Serine/threonine-protein kinase 33 (Homo sapiens); test: STK33 kinase inhibitors, dose response, biochemical, luminescence, cell-free, retest (AID 2821)
pEC50: −log10 of the molar value.
measured quantity: pEC50

Examples from the recorded data:
molecule=O=C1c2c(O)ccc(O)c2C(=O)c2c(NCCNCCO)ccc(NCCNCCO)c21 recorded_measurement=5.23
molecule=O=c1ccc2cc3c([nH]c4ccc(Br)cc43)oc-2c1O recorded_measurement=5.40

A: CCN(CC)c1ccc(/C=C2/C(=O)c3ccc(C(=O)O)cc3C2=O)cc1
B: O=C(Nc1cccc(-c2cn3cccnc3n2)c1)c1ccc(Br)o1
Lab note: check whether A or B has the lower measured pEC50. Please reply using the label of the selected record.
B
(B: 4.80, A: 5.42)

* * *

target: Serine/threonine-protein kinase 33 (Homo sapiens, UniProt Q9BYT3); assay: STK33 kinase inhibitors, dose response, biochemical, luminescence, cell-free, retest (AID 2821)
measured quantity: EC50 (µM)

Examples from the recorded data:
molecule="O=C(Nc1nc2ccccc2[nH]1)c1ccc(Br)o1 [SMR000352903]" tested_on="Serine/threonine-protein kinase 33 (Homo sapiens, UniProt Q9BYT3)" unit_string=µM recorded_measurement=10.1
molecule=CCN1C=CC(=C2C(=O)c3ccccc3C2=O)C=C1 tested_on="Serine/threonine-protein kinase 33 (Homo sapiens, UniProt Q9BYT3)" unit_string=µM recorded_measurement=14
molecule=CS(=O)(=O)Nc1ccc(-c2cc(C=C3SC(N)=NC3=O)c[nH]c2=O)cc1 tested_on="Serine/threonine-protein kinase 33 (Homo sapiens, UniProt Q9BYT3)" unit_string=µM recorded_measurement=8.09
molecule="NC(=O)NN=Cc1c(O)ccc2oc3c(c12)CCCC3 [SMR000414386]" tested_on="Serine/threonine-protein kinase 33 (Homo sapiens, UniProt Q9BYT3)" unit_string=µM recorded_measurement=1.24
molecule=c1ccc(Nc2ccnc(Nc3ccccc3)n2)cc1 tested_on="Serine/threonine-protein kinase 33 (Homo sapiens, UniProt Q9BYT3)" unit_string=µM recorded_measurement=14.9
molecule=COc1cc(C=C2SC(N)=NC2=O)ccc1O tested_on="Serine/threonine-protein kinase 33 (Homo sapiens, UniProt Q9BYT3)" unit_string=µM recorded_measurement=0.936
molecule="CCOc1cc(C=C(C#N)c2n[nH]c(N)c2C#N)ccc1O [MLS000523215]" tested_on="Serine/threonine-protein kinase 33 (Homo sapiens, UniProt Q9BYT3)" unit_string=µM recorded_measurement=8.62
molecule=CN(C)C/C=C/C(=O)Nc1cccc(-c2c[nH]c3ncnc(Oc4ccc(NC(=O)CC(=O)Nc5ccc(F)cc5)cc4F)c23)c1 tested_on="Serine/threonine-protein kinase 33 (Homo sapiens, UniProt Q9BYT3)" unit_string=µM recorded_measurement=6.32
molecule=CCn1cc(/C=C/C(=O)c2ccc(O)cc2)c(C)n1 tested_on="Serine/threonine-protein kinase 33 (Homo sapiens, UniProt Q9BYT3)" unit_string=µM recorded_measurement=9.79
molecule=O=C(O)c1ccc(NC(=O)c2cccc(C(=O)Nc3ccc(C(=O)O)cc3)n2)cc1 tested_on="Serine/threonine-protein kinase 33 (Homo sapiens, UniProt Q9BYT3)" unit_string=µM recorded_measurement=28.3

A: O=c1c2ccccc2oc2ccc(NCCCN3CCOCC3)cc12
B: Cc1ccc(NC(=O)c2cccc(C(=O)Nc3ccc(C)cc3C(=O)O)c2)c(C(=O)O)c1 [The compound has not trivial name.]
Lab note: check whether A or B has the lower measured EC50. Please reply using the label of the selected record.
A
(A: 3.82 µM, B: 21.8 µM)

P: Cc1ncc(C=C2C(=O)Nc3ccccc32)[nH]1
Q: c1nc(N2CCCC2)c2[nH]cnc2n1 [6-(1-pyrrolidinyl)-7H-purine]
R: Cc1sc2ncnc(N=NCc3cccc(O)c3)c2c1C [SMR000219295]
Rank items: key EC50, increasing. Provide the labels, sequenced as the question asks.
P, Q, R
(P: 3.42 µM, Q: 9.71 µM, R: 17 µM)
